All values here come from ChEMBL document CHEMBL4052712.

Assay: AUClast in Swiss albino mouse at 5 mg/kg, po measured during 0.5 to 48 hrs post dose by HPLC/MS/MS method
Format: ADME, organism-based
Parameters: dose 5 mg/kg, route oral, time 0 - last
Settings: in vivo
Parameter: AUC(0-t)
Units required after the number.

Need AUC(0-t), item N#Cc1ccc(COc2ccc(C#Cc3ccc(C(F)(F)C(O)(Cn4cnnn4)c4ccc(F)cc4F)nc3)cc2)cc1 (single isomer, unassigned; (+))
67000 ng·h/mL

###

Experiment: Half life in Swiss albino mouse plasma at 5 mg/kg, po measured during 0.5 to 48 hrs post dose by HPLC/MS/MS method
Assay type: ADME, organism-based
Parameter: half-life (min)
Enter your answer as a number in min; do not include the unit.

Given the entry N#Cc1ccc(COc2ccc(C#Cc3ccc(C(F)(F)C(O)(Cn4cnnn4)c4ccc(F)cc4F)nc3)cc2)cc1 (single isomer, unassigned; (+)) , report its measured half-life.
1440

###

Biological target: Cytochrome P450 11B2, mitochondrial (Homo sapiens)
Sequence (P19099 whole entry): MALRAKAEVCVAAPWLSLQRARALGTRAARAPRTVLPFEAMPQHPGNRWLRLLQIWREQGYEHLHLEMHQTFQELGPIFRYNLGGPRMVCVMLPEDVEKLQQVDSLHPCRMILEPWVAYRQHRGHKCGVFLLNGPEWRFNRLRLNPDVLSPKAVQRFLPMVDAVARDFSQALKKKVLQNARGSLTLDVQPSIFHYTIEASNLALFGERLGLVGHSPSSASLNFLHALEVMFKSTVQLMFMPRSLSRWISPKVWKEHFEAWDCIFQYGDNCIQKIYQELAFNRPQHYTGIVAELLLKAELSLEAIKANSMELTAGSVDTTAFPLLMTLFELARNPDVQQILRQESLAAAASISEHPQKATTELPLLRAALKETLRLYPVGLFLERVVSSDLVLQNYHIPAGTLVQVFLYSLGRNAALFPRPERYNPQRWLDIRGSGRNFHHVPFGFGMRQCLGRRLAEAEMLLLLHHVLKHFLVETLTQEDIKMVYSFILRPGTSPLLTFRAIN
Parameter: pIC50
Reminder that pIC50 is minus the log10 of a molar concentration.

Structure: OC(Cn1cncn1)(Cn1cncn1)c1ccc(F)cc1F
pIC50: 4.89

Would you kindly look at the next entry?
Report pIC50 for `CC[C@@H]([C@H](C)O)n1ncn(-c2ccc(N3CCN(c4ccc(OC[C@@H]5CO[C@@](Cn6cncn6)(c6ccc(F)cc6F)C5)cc4)CC3)cc2)c1=O` please.
7.68

###

Form field: MIC100 (one value per entry).
Target: Lanosterol 14-alpha demethylase (Aspergillus) (UniProt B8NUK6+Q9P8R0+G4WW85)
Assay: Inhibition of CYP51 in Aspergillus fumigatus assessed as inhibition of microbe growth incubated for 48 to 168 hrs by CLSI M27-A3 guideline based method

Compound: OC(Cn1cnnn1)(c1ccc(F)cc1F)C(F)(F)c1ccc(C#Cc2ccc(OCc3ccc(CC(F)F)cc3)cc2)cn1 (single isomer, unassigned; (+))
Parameter: MIC100
Recorded value: 2 µg/mL
//
Compound: OC(Cn1cnnn1)(c1ccc(F)cc1F)C(F)(F)c1ccc(C#Cc2ccc(F)cc2)cn1 (stereo in doubt; 6a)
Parameter: MIC100
Recorded value: > 64 µg/mL
//
Compound: OC(Cn1cnnn1)(c1ccc(F)cc1F)C(F)(F)c1ccc(C#Cc2ccc(OCc3ccc(CC(F)F)cc3)cc2)cn1 (stereo in doubt; 7e)
Parameter: MIC100
Recorded value: 4 µg/mL

Return reported MIC100; argument: N#Cc1ccc(COc2ccc(C#Cc3ccc(C(F)(F)C(O)(Cn4cnnn4)c4ccc(F)cc4F)nc3)cc2)cc1 (single isomer, unassigned; (+))
0.25 µg/mL

Given the entry N#Cc1ccc(COc2ccc(C#Cc3ccc(C(F)(F)C(O)(Cn4cnnn4)c4cc(F)ccc4F)nc3)cc2)cc1 (configuration not stated) , report its measured MIC100.
> 64 µg/mL

For the compound shown here, N#Cc1ccc(OCc2ccc(C#Cc3ccc(C(F)(F)C(O)(Cn4cnnn4)c4ccc(F)cc4F)nc3)cc2)cc1 (configuration not stated) , give the reported MIC100.
> 64 µg/mL
